# Experiment Notes: NCI Yeast Anticancer Drug Screen. Data for the mlh1 rad18 strain (AID 175)
# Condition Parameters: S. cerevisiae mlh1 rad18 strain growth inhibition; at 50.0 µM; hits give high values
# Method: Growth inhibition of yeast strains with defined genetic alterations is measured as a screen for potential anti-cancer activity. Selected strains with alterations in DNA damage repair or cell cycle control were exposed to compounds and growth inhibition was measured relative to vehicle treated controls. The strain used in this assay is mlh1 rad18
About 79,000 compounds went through this panel and 15% of them were active in at least one assay; those are over-represented in the sample as a whole.
Rule: criterion met for growth inhibition not less than 20%, criterion not met for anything less.

# example entries with known answers
NC1=NN(c2ccccc2)C(=O)C1C(=O)CCC(=O)Nc1cccc(Cl)c1 (stereo not given) = criterion not met
COc1cc(C(=O)Oc2c(C(C)=O)sc3c2c(=O)n(-c2ccccc2)c(=S)n3-c2ccccc2)cc(OC)c1OC = criterion met
CN(C)[C@@H]1C(=O)C(C(=O)NCNC2CC(C)(C)N(O)C(C)(C)C2)=C(O)C2(O)C(=O)C3=C(O)c4c(O)cccc4[C@@](C)(O)C3CC12 (stereo not given in full) = criterion met
CC(=O)Nc1cc(CN2CCCCC2)c(O)c2ncccc12 = criterion not met

Next item in the queue.
// query Could you please find out whether CCOC(=O)c1ccccc1NC has growth inhibition that meets 20% or exceeds it?
// result criterion not met
